The measured values listed here are drawn from paper PMC7054612.

Experiment: In vivo pharmacokinetic study in male BALB/c mice
Conditions: mouse, plasma, intravenous (i.v) 5 mg/kg, n = 4
Protocol: To evaluate in vivo pharmacokinetics in mice, LMT-28 was dissolved in phosphate-buffered saline (pH 7.4) containing 5% (w/v) carboxymethyl cellulose (MilliporeSigma, USA) and administered orally by using oral needle and intravenously in the mouse tail vein at the dose of 5 mg/kg to male BALB/c mice (22 to 25 g) after overnight fasting. […] These plasma samples (25 μL) were used for the quantification of LMT-28 concentration in mice. […]

[
  {
    "MOLECULE": "C=C(CCCCC)[C@@H](O)[C@H](C)C(=O)N1C(=O)OC[C@@H]1C(C)C [LMT-28]",
    "clearance [mL/min/kg]": 144
  }
]

====

Assay: Equilibrium solubility in water, 24 h shake-flask method
Format: physicochemical
Conditions: thermodynamic from solid, 25°C

[
  {
    "ITEM SMILES": "C=C(CCCCC)[C@@H](O)[C@H](C)C(=O)N1C(=O)OC[C@@H]1C(C)C",
    "solubility at 24 h / µg/mL": 390
  }
]

====

Test: In vivo pharmacokinetic study in male BALB/c mice
Conditions: mouse, plasma, oral (p.o.) 5 mg/kg, n = 4
Experimental: To evaluate in vivo pharmacokinetics in mice, LMT-28 was dissolved in phosphate-buffered saline (pH 7.4) containing 5% (w/v) carboxymethyl cellulose (MilliporeSigma, USA) and administered orally by using oral needle and intravenously in the mouse tail vein at the dose of 5 mg/kg to male BALB/c mice (22 to 25 g) after overnight fasting. […] These plasma samples (25 μL) were used for the quantification of LMT-28 concentration in mice. […]
ENDPOINT LABEL: AUC(0-inf) (ng·h/mL)

[
  {
    "ITEM SMILES": "C=C(CCCCC)[C@@H](O)[C@H](C)C(=O)N1C(=O)OC[C@@H]1C(C)C",
    "RESULT NUMBER": 302
  }
]

====

Assay: Plasma protein binding assay
Assay type: in vitro ADME
Conditions: plasma, read-out: Plasma protein binding (bound drug %) (converted)

[
  {
    "ITEM SMILES": "C=C(CCCCC)[C@@H](O)[C@H](C)C(=O)N1C(=O)OC[C@@H]1C(C)C",
    "fraction unbound at 2 μM": 0.076
  }
]

====

Assay: In vivo pharmacokinetic study in male BALB/c mice
Conditions: mouse, plasma, intravenous (i.v) 5 mg/kg, n = 4, read-out: t1/2 (terminal elimination half-life) (converted)

[
  {
    "COMPOUND": "C=C(CCCCC)[C@@H](O)[C@H](C)C(=O)N1C(=O)OC[C@@H]1C(C)C [LMT-28]",
    "RESULT UNIT": "h",
    "half-life": 1.37
  }
]

====

Assay: Metabolic stability in rat liver microsomes
Type: in vitro ADME
Settings: rat liver microsomes, pH 7.4; calculated from rat microsomal half-life; read-out: In vitro intrinsic clearance CLint, in vitro (Rat)
ENDPOINT LABEL: microsomal CLint at 1 μM (µL/min/mg)

[
  {
    "MOLECULE": "C=C(CCCCC)[C@@H](O)[C@H](C)C(=O)N1C(=O)OC[C@@H]1C(C)C [LMT-28]",
    "ENDPOINT LABEL": "microsomal CLint at 1 μM",
    "RESULT NUMBER": 91
  }
]

====

Experiment: In vivo pharmacokinetic study in male BALB/c mice
Details: mouse, plasma, oral (p.o.) 5 mg/kg, n = 4

[
  {
    "ITEM SMILES": "C=C(CCCCC)[C@@H](O)[C@H](C)C(=O)N1C(=O)OC[C@@H]1C(C)C",
    "RESULT UNIT": "ng/mL",
    "Cmax": 137
  }
]

====

Experiment: In vivo pharmacokinetic study in male BALB/c mice
Conditions: mouse, plasma, oral (p.o.) 5 mg/kg, n = 4, read-out: AUC8h
ENDPOINT LABEL: AUC(0-t)

[
  {
    "ITEM SMILES": "C=C(CCCCC)[C@@H](O)[C@H](C)C(=O)N1C(=O)OC[C@@H]1C(C)C",
    "ENDPOINT LABEL": "AUC(0-t)",
    "RESULT": "292 ng·h/mL"
  }
]

====

Test: In vivo pharmacokinetic study in male BALB/c mice
Settings: mouse, plasma, oral (p.o.) 5 mg/kg, n = 4
Procedure: To evaluate in vivo pharmacokinetics in mice, LMT-28 was dissolved in phosphate-buffered saline (pH 7.4) containing 5% (w/v) carboxymethyl cellulose (MilliporeSigma, USA) and administered orally by using oral needle and intravenously in the mouse tail vein at the dose of 5 mg/kg to male BALB/c mice (22 to 25 g) after overnight fasting. […] These plasma samples (25 μL) were used for the quantification of LMT-28 concentration in mice. […]
ENDPOINT LABEL: Tmax (min)

[
  {
    "ITEM SMILES": "C=C(CCCCC)[C@@H](O)[C@H](C)C(=O)N1C(=O)OC[C@@H]1C(C)C",
    "RESULT NUMBER": 48
  }
]

====

Experiment: In vivo pharmacokinetic study in male BALB/c mice
Conditions: mouse, plasma, oral (p.o.) 5 mg/kg, n = 4
Method: To evaluate in vivo pharmacokinetics in mice, LMT-28 was dissolved in phosphate-buffered saline (pH 7.4) containing 5% (w/v) carboxymethyl cellulose (MilliporeSigma, USA) and administered orally by using oral needle and intravenously in the mouse tail vein at the dose of 5 mg/kg to male BALB/c mice (22 to 25 g) after overnight fasting. […] These plasma samples (25 μL) were used for the quantification of LMT-28 concentration in mice. […]

[
  {
    "ITEM SMILES": "C=C(CCCCC)[C@@H](O)[C@H](C)C(=O)N1C(=O)OC[C@@H]1C(C)C",
    "MRT [h]": 1.9
  }
]

====

Assay: Metabolic stability in human liver microsomes
Format: in vitro ADME
Conditions: pH 7.4; human liver microsomes 0.5 mg protein/mL, 1 μM, NADPH, 37°C; read-out: Liver microsomal stability half-life (t1/2, human)
ENDPOINT LABEL: half-life at 1 μM (min)

[
  {
    "ITEM SMILES": "C=C(CCCCC)[C@@H](O)[C@H](C)C(=O)N1C(=O)OC[C@@H]1C(C)C",
    "ENDPOINT LABEL": "half-life at 1 μM",
    "RESULT NUMBER": 21.9
  }
]

====

Experiment: In vivo pharmacokinetic study in male BALB/c mice
Settings: mouse, plasma, intravenous (i.v) 5 mg/kg, n = 4
ENDPOINT LABEL: AUC(0-inf) (ng·h/mL)

[
  {
    "COMPOUND": "C=C(CCCCC)[C@@H](O)[C@H](C)C(=O)N1C(=O)OC[C@@H]1C(C)C [LMT-28]",
    "ENDPOINT LABEL": "AUC(0-inf)",
    "RESULT NUMBER": 677
  }
]

====

Assay: Metabolic stability in rat liver microsomes
Format: in vitro ADME
Conditions: pH 7.4; rat liver microsomes 0.5 mg protein/mL, 1 μM, NADPH, 37°C; read-out: Liver microsomal stability half-life (t1/2, rat)

[
  {
    "ITEM SMILES": "C=C(CCCCC)[C@@H](O)[C@H](C)C(=O)N1C(=O)OC[C@@H]1C(C)C",
    "half-life at 1 μM [min]": 15.3
  }
]

====

Assay: In vivo pharmacokinetic study in male BALB/c mice
Conditions: mouse, plasma, intravenous (i.v) 5 mg/kg, n = 4, read-out: AUC8h
ENDPOINT LABEL: AUC(0-t) (ng·h/mL)

[
  {
    "MOLECULE": "C=C(CCCCC)[C@@H](O)[C@H](C)C(=O)N1C(=O)OC[C@@H]1C(C)C [LMT-28]",
    "RESULT NUMBER": 661
  }
]

====

Assay: In vivo pharmacokinetic study in male BALB/c mice
Settings: mouse, plasma, intravenous (i.v) 5 mg/kg, n = 4

[
  {
    "ITEM SMILES": "C=C(CCCCC)[C@@H](O)[C@H](C)C(=O)N1C(=O)OC[C@@H]1C(C)C",
    "MRT (h)": 1.58
  }
]

====

Assay: Metabolic stability in rat liver microsomes
Assay type: in vitro ADME
Conditions: rat liver microsomes, pH 7.4; scaled from rat microsomal half-life; liver weight 40 g/kg; read-out: In vivo intrinsic clearance CLint, in vivo (Rat)

[
  {
    "ITEM SMILES": "C=C(CCCCC)[C@@H](O)[C@H](C)C(=O)N1C(=O)OC[C@@H]1C(C)C",
    "CLint scaled at 1 μM (mL/min/kg)": 164
  }
]

====

Assay: Metabolic stability in human liver microsomes
Assay type: in vitro ADME
Conditions: human liver microsomes, pH 7.4; scaled from human microsomal half-life; liver weight 21 g/kg; read-out: In vivo intrinsic clearance CLint, in vivo (Human)
Protocol: Metabolic stability using rat and human liver microsomes (Corning Gentest, USA) of LMT-28 was performed according to previous reported protocol. […] Samples (5 μL) were analyzed by directly injection into a liquid chromatography-tandem mass spectrometry (LC-MS/MS) system for the quantification of LMT-28. The metabolic half-life and in vitro intrinsic clearance of LMT-28 were calculated by next equations [19]. […]

[
  {
    "ITEM SMILES": "C=C(CCCCC)[C@@H](O)[C@H](C)C(=O)N1C(=O)OC[C@@H]1C(C)C",
    "CLint scaled at 1 μM, mL/min/kg": 60
  }
]
